Molecular target: Follistatin (Homo sapiens) (UniProt P19883)
Sequence (P19883 whole entry, looked up): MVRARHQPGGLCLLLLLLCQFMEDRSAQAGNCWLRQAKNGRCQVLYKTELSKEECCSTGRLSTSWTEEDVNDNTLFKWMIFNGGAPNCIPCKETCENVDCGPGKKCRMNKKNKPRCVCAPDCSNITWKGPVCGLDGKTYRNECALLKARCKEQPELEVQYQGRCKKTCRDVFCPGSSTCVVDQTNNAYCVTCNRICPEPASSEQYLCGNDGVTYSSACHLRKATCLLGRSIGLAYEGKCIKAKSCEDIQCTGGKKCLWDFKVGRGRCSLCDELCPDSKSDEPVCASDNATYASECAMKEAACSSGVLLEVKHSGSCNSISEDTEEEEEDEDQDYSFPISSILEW
Test: follistatin binders on small-molecule microarrays, primary screen, biochemical, small-molecule microarray, 635/667 nm fluorescence (AID 1132)
Conditions: FST binding, 635 nm fluorescence, higher = more signal
ENDPOINT: composite z-score
Note: the reply should be a number with no unit written.

Some compounds with known composite z-score results, for comparison:
CC(=O)NCCCC[C@@H]1NC(=O)[C@@H]2C[C@H](C(=O)NCCCCCCNC(=O)CS)[C@H](c3cccc(OCCO)c3)N2C1=O
1.24
COC(=O)[C@@]1(Cc2ccc(OC)cc2)[C@H]2c3cc(C(=O)N4CCCC4)n(Cc4ccccc4)c3C[C@H]2CN1C(=O)c1ccccc1
0.506
COC(=O)[C@@]1(Cc2ccccc2)[C@H]2c3cc(C(=O)N4CCCC4)n(Cc4cccc5ccccc45)c3C[C@H]2CN1C(=O)c1ccccc1
0.184
[N-]=[N+]=Nc1ccccc1C[C@@]1(C(=O)NCCN2CCOCC2)N=C(c2ccc(OCCCO)cc2)O[C@@H]1c1ccccc1
1.3
OC([C@@H]1CC(c2ccccc2)=NO1)[C@H]1CC(c2ccccc2)=NO1 (stereo partly drawn)
0.0914

Short answer for `C=CCOC(=O)[C@H]1[C@@H]2C(=O)O[C@@H](c3ccccc3)[C@@H](c3ccccc3)N2[C@@H](c2ccc(OCCOC(=O)[C@@H]3C[C@@H]4C(=O)N[C@@H](CCCCN(C)C)C(=O)N4[C@@H]3c3ccc(O)cc3)cc2)[C@]12C(=O)Nc1ccc(I)cc12` : composite z-score was 1.16

Looking up `[N-]=[N+]=NCc1ccccc1[C@@H]1OC(c2ccc(OCCCO)cc2)=N[C@]1(Cc1ccccc1N=[N+]=[N-])C(=O)N1CCOCC1` , I found its composite z-score recorded as 1.31

Quick note, composite z-score for `COCCCNC(=O)[C@@]1(Cc2ccccc2N=[N+]=[N-])N=C(c2ccc(OCCCO)cc2)O[C@H]1c1ccccc1N=[N+]=[N-]` landed at 1.25

The reported composite z-score of the compound `COCCOC(=O)N1C(=O)[C@@]2(c3cc(C#CCCO)ccc31)[C@H](C(=O)N1CCc3cc(OC)c(OC)cc3C1)[C@H]1C(=O)O[C@H](c3ccccc3)[C@H](c3ccccc3)N1[C@@H]2c1ccc(O)cc1` was 0.949

Record summary for CC(C)(C)OC(=O)CC[C@]1(C(=O)NCC(O)CO)COC(c2ccc(OCCCO)cc2)=N1 (stereo partly drawn) : reported composite z-score = -0.255

composite z-score for `COCCOC(=O)N1C(=O)[C@@]2(c3ccccc31)[C@H](c1ccc(O)cc1)N1[C@H](c3ccccc3)[C@H](c3ccccc3)OC(=O)[C@H]1[C@@H]2C(=O)NC[C@H](O)c1ccccc1` is 0.532

Query `COCCCNC(=O)[C@@]1(Cc2ccccc2)N=C(c2ccc(OCCCO)cc2)O[C@H]1c1ccccc1` yields composite z-score of 0.448

Looking up CCCCCN1CC=CC23O[C@@H]4/C=C\CCCOC(=O)C4[C@H]2C(=O)N(CCCO)[C@@H]3C1=O (stereo partly drawn) , I see its composite z-score listed as -0.162

* * *

Tested on: XIP peptide (Xip251-270) binding
Assay: small-molecule binders of XIP peptide, primary screen, biochemical, small-molecule microarray, fluorescence 635/667 nm, 0.1 µg/mL protein (AID 1182)
Conditions: fluorescent protein binding, 635 nm, higher = more signal, called active from +8 up or from −8 down
Categorize each record by its composite z-score using LOW: < 0.2; MID: ≥ 0.2 and < 0.7; HIGH: ≥ 0.7

Please review the entries below; each comes with its answer.
COc1ccc(CCNC(=O)[C@@H]2c3ccccc3C(=O)N(C3Cc4ccccc4C3)[C@H]2c2ccc(CO)cc2)cc1
HIGH
CCOC(=O)C[C@H]1[C@H](OC(=O)c2ccc(C(=O)c3ccccc3)cc2)[C@@H](NC(=O)c2ccc(-c3ccccc3)cc2)c2cc(OCCCO)ccc2N1C(=O)c1ccccc1
MID
C=C(C)C1C(=C)CN([C@H](CO)c2ccccc2)C1=O (stereo partly drawn)
LOW
CC(C)c1ccc(NN2C(C(O)c3cc(C(F)(F)F)cc(C(F)(F)F)c3)C=CC3C(=O)N(c4ccccc4)C(=O)C32)cc1 (stereo not drawn)
MID

Consider the additional molecule presented here.
**Q:** Consider `CC(C)N1C(=O)c2ccccc2[C@](C)(C(=O)NCc2ccccc2)[C@@H]1c1ccc(CO)cc1` . To which composite z-score class does it belong?
**A:** LOW

* * *

Experiment: Plasmodium falciparum growth inhibition, primary screen, strain 3D7, DAPI fluorescence, 100 nL (AID 1184);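 also: parasites grown inside human red blood cells in medium with human serum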
Details: P. falciparum 3D7 growth, 3 d, higher = more signal
ENDPOINT: z-score
Respond using a number only.

Answered examples (6):
C=CCC(OC(C)=O)[C@@H]1[C@@H](N(Cc2ccc(-c3cccc(C(F)(F)F)c3)o2)C(=O)c2ccc(-c3ccccc3)cc2)c2cc(OCCCO)ccc2N1C(=O)c1ccc(-c2ccccc2)cc1 (some centres not stated)
-0.29
CN(C)CCCNC(=O)[C@@]1(C)c2ccccc2C(=O)N(Cc2cc(F)cc(C(F)(F)F)c2)[C@H]1c1ccc(CO)cc1
-0.809
CN1C(=O)C2C=CC(C(O)c3cccs3)N(Nc3ccccc3)C2C1=O (configuration not stated)
0.376
[N-]=[N+]=NCc1ccccc1C[C@]1(C(=O)NCC(O)CO)N=C(c2ccc(OCCCO)cc2)O[C@H]1c1ccccc1 (some centres not stated)
-0.836
O=C(NCc1ccc(F)cc1)[C@H]1C[C@H]2C(=O)N[C@@H](Cc3ccccc3)C(=O)N2[C@H]1c1ccc(O)cc1
-0.237
COC(=O)[C@@]1(Cc2ccc(OC)cc2)[C@H]2c3cc(C(=O)N4CCCC4)n(Cc4ccsc4Br)c3C[C@H]2CN1C(=O)c1ccccc1
-1.59

Would you kindly look at the next entry?
Per the records, this compound ( CCC(CC)C(O)C1C=CC2C(=O)N(C)C(=O)C2N1Nc1ccccc1 (configuration not stated) ) has z-score equal to 0.865

* * *

Assay: A549 lung cancer cell viability effects, profiling panel, resazurin fluorescence, 24 h, PK04 Diversity Set (AID 1171)
Conditions: higher = more signal, called active from +8 up or from −8 down
// reported z-score per item
Lab note: jot down the number only; don't add units.

COC(=O)c1c(CC[C@@H](CO)NC(=O)N[C@H](Cn2cc(Cc3ccccc3)nn2)C(C)C)oc(C(C)=O)c1C(=O)OC
-0.896
[N-]=[N+]=NCc1ccccc1C[C@]1(C(=O)NCC(O)CO)N=C(c2ccc(OCCCO)cc2)O[C@H]1c1ccccc1 (some centres not stated)
-0.246
O=C(C1N=C(c2ccc(OCCCO)cc2)N(c2ccccc2)O1)N1CCOCC1 (configuration not stated)
0.298
CN1C(=O)C2C=CC(C(O)C3CCCCC3)N(Nc3ccc([N+](=O)[O-])cc3[N+](=O)[O-])C2C1=O (configuration not stated)
0.421
COc1ccc(C(=O)O[C@H]2CC[C@]3(C)C4=C(CCC3C2(C)C)[C@]2(C)CC[C@H]([C@H](C)CCCC(C)C)[C@@]2(C)CC4)cc1 (some centres not stated)
0.936

Given item `COC(=O)[C@@]1(Cc2ccccc2)[C@H]2c3cc(C(=O)N4CCCC4)n(CC4CC4)c3C[C@H]2CN1C(=O)c1ccccc1` , the value recorded as its z-score is -1.51

Per the records, this compound ( `O=C(NCc1ccc(F)cc1)[C@H]1C[C@H]2C(=O)N[C@@H](Cc3ccccc3)C(=O)N2[C@H]1c1ccc(O)cc1` ) has z-score equal to 0.278

* * *

Assay: small-molecule microarray binders of probe aWnt5a, primary screen, biochemical, biotinylated probe, 635/667 nm fluorescence (AID 1113);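 also: score merges 667 nm fluorescence intensity with signal-to-noise per printed feature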
Details: higher = more signal
Reported composite z-score values for a set of compounds
# respond with the number and nothing more

Recorded composite z-score, per entry:
O=C1C2C=CC(C(O)c3ccc(F)cc3)N(Nc3ccccc3F)C2C(=O)N1c1ccccc1 (stereo not drawn)
-0.001
COCCOC(=O)N1C(=O)[C@@]2(c3cc(C#Cc4ccc(OC)cc4)ccc31)[C@H](C(N)=O)[C@H]1C(=O)O[C@H](c3ccccc3)[C@H](c3ccccc3)N1[C@@H]2c1ccccc1OCCO
-0.0134
C=CCOC(=O)[C@H]1[C@@H]2C(=O)O[C@@H](c3ccccc3)[C@@H](c3ccccc3)N2[C@@H](c2ccc(OCCOC(=O)[C@@H]3C[C@@H]4C(=O)N[C@@H](CCCC[N+](C)(C)C)C(=O)N4[C@@H]3c3ccc(O)cc3)cc2)[C@]12C(=O)Nc1ccccc12
-0.0398
C=CCN1C(=O)[C@]2(O[C@H](CCO)[C@@H]([Si](C)(C)c3ccc(OC)cc3)[C@@H]2C)c2cc(N3C(=O)c4cccc5cccc3c45)ccc21
-0.159
CC(C)C[C@@H]1NC(=O)[C@H]2C[C@@H](C(=O)NCCCCCCN(C)C)[C@@H](c3ccc(O)cc3)N2C1=O
-0.0337

Now for the compound whose composite z-score we want.
Per the records, this compound ( `C=CCN1C(=O)[C@]2(O[C@H](CCO)[C@@H]([Si](C)(C)c3ccc(OC)cc3)[C@@H]2C)c2cc(N3CCCCC3=O)ccc21` ) has composite z-score equal to -0.0977
